- Tested on: Leishmania major
- ASSAY METHOD TEXT: Antileishmanial activity against Leishmania major promastigotes incubated for 48 hrs by MTT assay
- Type: functional, organism-based
ENDPOINT LABEL: pIC50
pIC50 (log units): -log10 of the concentration in mol/L.

stdin: Param item = COc1cccc2c1C(=O)C=C(C)C2=O ; retrieve measured pIC50.
stdout: 5.48

stdin: Param item = COc1cc(C)cc2c1C(=O)C=C(c1c(C)cc3ccc(O)c(OC)c3c1O)C2=O [BURMANIN B] ; retrieve measured pIC50.
stdout: 6.74

stdin: Param item = COc1c(C)cc2cccc(OC)c2c1O ; retrieve measured pIC50.
stdout: 4.35

stdin: Param item = COc1cc(C)cc2c1C(=O)C=C(c1c(C)c(OC)c3ccc(O)c(OC)c3c1O)C2=O [BURMANIN C] ; retrieve measured pIC50.
stdout: 6.82

###

- ASSAY METHOD TEXT: Toxicity against mouse RAW264.7 cells by XTT assay
- Format: cell-based
Residues, ends and D or L forms follow the SMILES beside them. *: point of attachment. Cbz = O=C(OCc1ccccc1)*
Field: IC50. Provide a value for each of the compounds that follow.
Output spec: scalar in µM, unitless text.

stdin: Param item = COc1cccc2c1C(=O)C=C(C)C2=O ; retrieve measured IC50.
stdout: 45

stdin: Param item = COc1cc(C)cc2c1C(=O)C=C(c1c(C)cc3ccc(O)c(OC)c3c1O)C2=O ; retrieve measured IC50.
stdout: 31

stdin: Param item = COc1cc(C)cc2c1C(=O)C=C(C1=C(C)C(=O)c3ccc(O)c(OC)c3C1=O)C2=O ; retrieve measured IC50.
stdout: 24

stdin: Param item = COc1cc(C)cc2c1C(=O)C=C(c1c(C)c(OC)c3ccc(O)c(OC)c3c1O)C2=O ; retrieve measured IC50.
stdout: 22

stdin: Param item = CC(C)C[C@@H](C=O)NC(=O)[C@H](CC(C)C)NC(=O)[C@H](CC(C)C)NC(=O)OCc1ccccc1 [MG-132] (Cbz-Leu-Leu-Leu-aldehyde) ; retrieve measured IC50.
stdout: 0.63

stdin: Param item = COc1c(O)ccc2c1C(=O)C(C)=CC2=O ; retrieve measured IC50.
stdout: 96

###

- Test system: Leishmania major
- ASSAY METHOD TEXT: Antileishmanial activity against Leishmania major promastigotes incubated for 48 hrs by MTT assay
- Type: functional, organism-based
ENDPOINT LABEL: pIC50
pIC50 (log units): -log10 of the concentration in mol/L.

stdin: Param item = COc1ccc(OC)c2c(O)cc(C)cc12 ; retrieve measured pIC50.
stdout: 4.42

stdin: Param item = C[C@@H]1[C@H](O)[C@@H](C)/C=C/C=C/C=C/C=C/C=C/C=C/C=C/[C@H](O[C@@H]2O[C@H](C)[C@@H](O)[C@H](N)[C@@H]2O)C[C@@H]2O[C@](O)(C[C@@H](O)C[C@@H](O)[C@H](O)CC[C@@H](O)C[C@@H](O)CC(=O)O[C@H]1C)C[C@H](O)[C@H]2C(=O)O [AMPHOTERICIN B] ; retrieve measured pIC50.
stdout: 7.46

stdin: Param item = COc1c(O)ccc2c1C(=O)C(C)=CC2=O ; retrieve measured pIC50.
stdout: 4.03

###

- ASSAY METHOD TEXT: Selectivity index, ratio of IC50 for mouse RAW264.7 cells to IC50 for Leishmania major promastigotes
- Type: toxicity, cell-based
- MEASUREMENT PARAMETERS: RAW264.7 cells versus Leishmania major promastigotes, read-out: Ratio IC50
Assign class by selectivity ratio: not lower than 10 means YES; lower than 10 means NO.

stdin: Threshold query (selectivity ratio >= 10) on COc1cc(C)cc2c1C(=O)C=C(c1c(C)c(OC)c3ccc(O)c(OC)c3c1O)C2=O
stdout: YES

stdin: Threshold query (selectivity ratio >= 10) on COc1cccc2c1C(=O)C=C(C)C2=O
stdout: YES

stdin: Threshold query (selectivity ratio >= 10) on COc1cc(C)cc2c1C(=O)C=C(c1c(C)cc3ccc(O)c(OC)c3c1O)C2=O
stdout: YES

stdin: Threshold query (selectivity ratio >= 10) on COc1cc(C)cc2c1C(=O)C=C(C1=C(C)C(=O)c3ccc(O)c(OC)c3C1=O)C2=O
stdout: YES

stdin: Threshold query (selectivity ratio >= 10) on COc1c(O)ccc2c1C(=O)C(C)=CC2=O
stdout: NO

Reference source: ChEMBL document CHEMBL2069272
